Tested on: Escherichia coli
Experiment: MIC90 determination, clinical strains (CLSI)
Assay type: cell-based
Conditions: Escherichia coli, N=38, read-out: MIC 90 Escherichia coli
READOUT: MIC90 (mg/L)

Known MIC90 results, listed for orientation:
Cn1c(=O)cnc2ccc(OCCNC[C@H]3CN(c4cnc5c(n4)NC(=O)CS5)C(=O)O3)nc21 [Compound 1, reference compound] = 0.5
Cn1c(=O)cnc2ccc(OCCNC[C@@H]3CN(c4cnc5c(n4)NC(=O)CS5)C(=O)O3)nc21 [Compound 3] = 0.5

[I] Cn1c(=O)ccc2ncc(OCCNC[C@@H]3CN(c4cnc5c(n4)NC(=O)CS5)C(=O)O3)nc21 [Compound 4]
[II] Cn1c(=O)ccc2ncc(OCCNC[C@H]3CN(c4cnc5c(n4)NC(=O)CS5)C(=O)O3)nc21 [Compound 2, reference compound]
Sorting ascending by MIC90, which comes first: I or II ? Please respond with the label that marks your chosen entry.
I
(I: 0.5 mg/L, II: 1 mg/L)

###

Test system: Pseudomonas aeruginosa
Experiment: MIC90 determination, clinical strains (CLSI)
Type: cell-based
Settings: Pseudomonas aeruginosa, N=34, read-out: MIC 90 Pseudomonas aeruginosa
READOUT: MIC90 (µg/mL)

Known MIC90 results, listed for orientation:
Cn1c(=O)cnc2ccc(OCCNC[C@@H]3CN(c4cnc5c(n4)NC(=O)CS5)C(=O)O3)nc21 [Compound 3] = 4
Cn1c(=O)ccc2ncc(OCCNC[C@@H]3CN(c4cnc5c(n4)NC(=O)CS5)C(=O)O3)nc21 [Compound 4] = 4

[P] Cn1c(=O)ccc2ncc(OCCNC[C@H]3CN(c4cnc5c(n4)NC(=O)CS5)C(=O)O3)nc21 [Compound 2, reference compound]
[Q] Cn1c(=O)cnc2ccc(OCCNC[C@H]3CN(c4cnc5c(n4)NC(=O)CS5)C(=O)O3)nc21 [Compound 1, reference compound]
Sorting ascending by MIC90, which comes first: P or Q ? Please respond with the label that marks your chosen entry.
Q
(Q: 2 µg/mL, P: 4 µg/mL)

###

Tested on: Staphylococcus aureus ATCC 29213
Below, each of the molecules is paired with its reported MIC value.

Known MIC results, listed for orientation:
CN1C(=O)CNc2cc(F)c(OCCNC[C@H]3CN(c4cnc5c(n4)NC(=O)CS5)C(=O)O3)nc21 = < 0.015 µg/mL
CN1C(=O)CNc2cc(F)c(OCCNC[C@@H]3CN(c4cnc5c(n4)NC(=O)CS5)C(=O)O3)nc21 = < 0.015 µg/mL

So what does the record say about MIC for `Cn1c(=O)ccc2ncc(OCCNC[C@@H]3CN(c4cnc5c(n4)NC(=O)CS5)C(=O)O3)nc21` ?
0.015 µg/mL

###

Tested on: Providencia rettgeri, P. stuartii
Assay: MIC90 determination, clinical strains (CLSI)
Assay type: cell-based
Conditions: N=12, read-out: MIC 90 Providencia rettgeri, P. stuartii
READOUT: MIC90 (µg/mL)

Cn1c(=O)ccc2ncc(OCCNC[C@@H]3CN(c4cnc5c(n4)NC(=O)CS5)C(=O)O3)nc21 [Compound 4] = 2
Cn1c(=O)cnc2ccc(OCCNC[C@@H]3CN(c4cnc5c(n4)NC(=O)CS5)C(=O)O3)nc21 [Compound 3] = 2

[P] Cn1c(=O)cnc2ccc(OCCNC[C@H]3CN(c4cnc5c(n4)NC(=O)CS5)C(=O)O3)nc21 [Compound 1, reference compound]
[Q] Cn1c(=O)ccc2ncc(OCCNC[C@H]3CN(c4cnc5c(n4)NC(=O)CS5)C(=O)O3)nc21 [Compound 2, reference compound]
Pick one: P or Q . Which has the bigger MIC90 number? Please respond with the label that marks your chosen entry.
Q

###

Form: system (Staphylococcus aureus ATCC 29213), quantity (MIC), values below.

Cn1c(=O)ccc2ncc(OCCNC[C@H]3CN(c4cnc5c(n4)NC(=O)CS5)C(=O)O3)nc21 [Compound 2, reference compound] = < 0.03 µg/mL

So what does the record say about MIC for CN1C(=O)CNc2ccc(OCCNC[C@@H]3CN(c4cnc5c(n4)NC(=O)CS5)C(=O)O3)nc21 [Compound 5] ?
< 0.015 µg/mL

So what does the record say about MIC for Cn1c(=O)cnc2ccc(OCCNC[C@H]3CN(c4cnc5c(n4)NC(=O)CS5)C(=O)O3)nc21 [Compound 1, reference compound] ?
< 0.03 µg/mL

So what does the record say about MIC for Cn1c(=O)cnc2ccc(OCCNC[C@@H]3CN(c4cnc5c(n4)NC(=O)CS5)C(=O)O3)nc21 [Compound 3] ?
< 0.015 µg/mL

###

Target: hERG potassium channel (Homo sapiens (Human))
Sequence (Q12809 whole entry): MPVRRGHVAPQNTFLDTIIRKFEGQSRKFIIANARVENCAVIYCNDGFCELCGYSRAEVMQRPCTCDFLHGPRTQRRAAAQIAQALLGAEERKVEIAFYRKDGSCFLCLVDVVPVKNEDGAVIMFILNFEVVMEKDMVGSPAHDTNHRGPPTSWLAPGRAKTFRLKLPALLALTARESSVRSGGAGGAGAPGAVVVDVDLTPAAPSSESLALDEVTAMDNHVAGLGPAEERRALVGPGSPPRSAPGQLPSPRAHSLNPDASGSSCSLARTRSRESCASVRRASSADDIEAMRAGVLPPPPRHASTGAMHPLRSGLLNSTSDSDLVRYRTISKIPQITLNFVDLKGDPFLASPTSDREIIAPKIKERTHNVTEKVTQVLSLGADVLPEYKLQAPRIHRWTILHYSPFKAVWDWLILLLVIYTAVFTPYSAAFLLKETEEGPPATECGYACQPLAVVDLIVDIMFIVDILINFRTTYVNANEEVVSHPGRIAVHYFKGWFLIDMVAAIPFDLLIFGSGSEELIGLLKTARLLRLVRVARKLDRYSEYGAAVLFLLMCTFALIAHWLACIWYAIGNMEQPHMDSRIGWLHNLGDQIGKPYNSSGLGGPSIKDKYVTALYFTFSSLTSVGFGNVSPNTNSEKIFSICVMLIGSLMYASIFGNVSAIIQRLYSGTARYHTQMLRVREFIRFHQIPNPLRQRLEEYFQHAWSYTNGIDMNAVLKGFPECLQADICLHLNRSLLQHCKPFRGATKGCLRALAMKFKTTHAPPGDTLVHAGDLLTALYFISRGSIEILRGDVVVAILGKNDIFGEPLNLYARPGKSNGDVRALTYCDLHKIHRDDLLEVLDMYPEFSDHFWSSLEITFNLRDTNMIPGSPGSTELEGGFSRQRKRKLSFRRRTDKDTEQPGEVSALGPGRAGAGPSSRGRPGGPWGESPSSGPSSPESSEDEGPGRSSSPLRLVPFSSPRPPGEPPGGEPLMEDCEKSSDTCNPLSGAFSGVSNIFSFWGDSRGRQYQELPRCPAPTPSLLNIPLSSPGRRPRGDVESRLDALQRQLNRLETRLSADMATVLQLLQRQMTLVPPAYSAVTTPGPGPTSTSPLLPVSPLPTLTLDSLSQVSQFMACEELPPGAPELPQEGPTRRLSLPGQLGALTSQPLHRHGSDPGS
Assay: hERG inhibition assay (Qpatch HTX automated electrophysiology)
Conditions: CHO cell line expressing hERG, whole-cell patch clamp
Below, each of the compounds is paired with its reported IC50 value.

Known IC50 results, listed for orientation:
CN1C(=O)CNc2ccc(OCCNC[C@H]3CN(c4cnc5c(n4)NC(=O)CS5)C(=O)O3)nc21 = > 300 µM
CN1C(=O)CNc2cc(F)c(OCCNC[C@H]3CN(c4cnc5c(n4)NC(=O)CS5)C(=O)O3)nc21 = > 300 µM

Now consider a different compound.
So what does the record say about IC50 for Cn1c(=O)ccc2ncc(OCCNC[C@H]3CN(c4cnc5c(n4)NC(=O)CS5)C(=O)O3)nc21 [Compound 2, reference compound] ?
> 150 µM

###

Form: system (Klebsiella pneumoniae ATCC 13883), quantity (MIC), values below.
READOUT: MIC (µg/mL)

Cn1c(=O)ccc2ncc(OCCNC[C@@H]3CN(c4cnc5c(n4)NC(=O)CS5)C(=O)O3)nc21 [Compound 4] = 0.06
CN1C(=O)CNc2ccc(OCCNC[C@H]3CN(c4cnc5c(n4)NC(=O)CS5)C(=O)O3)nc21 [Compound 6] = 0.06
CN1C(=O)CNc2ccc(OCCNC[C@@H]3CN(c4cnc5c(n4)NC(=O)CS5)C(=O)O3)nc21 [Compound 5] = 0.06
